Hi, quick share: literature pIC50 data for human ACC2 (Homo sapiens (Human), UniProt O00763), several sources combined.
Field pIC50 (float): negative decimal logarithm of the concentration in molar.

C[C@H](NC(=O)c1cn[nH]c1)c1ccc(CN2CCc3c(cccc3C(F)(F)F)C2)cc1 ... 7.00
CCCOc1cccc2c1CCN(Cc1ccc(C(C)NC(C)=O)cc1)C2 (centres unmarked) ... 6.49
CCOc1ccc(C#Cc2ccc(CC(CC)NC(C)=O)cc2)cc1 (centres unmarked) ... 6.82

Let us examine a further case.
For the compound Cc1oncc1C(=O)NC(C)Cc1ccc(C2CN(c3ccc4c(c3)OCCO4)C2)cc1 (centres unmarked) , the measured pIC50 on human ACC2 (Homo sapiens (Human), UniProt O00763) was 5.55

###

pIC50: −log10 of the molar value.
Below are pIC50 values for UniProtKB O00763 collected from several publications.
Label yes (1) when pIC50 is at or above 6; anything below gets no (0).

Below, 5 molecules whose answers are already recorded.
CCCOc1cnc(N2CC[C@@H](Oc3ccc([C@H](C)NC(=O)c4sc(NC(C)=O)nc4C)cc3)C2)c(F)c1 ... yes (1)
CC(=O)NC(C)Cc1ccc(C#Cc2ccnc(N(C)C3CCCCC3)n2)cc1 (centres unmarked) ... yes (1)
CC(=O)N[C@@H](C)c1ccc(C2CN(c3nnc(-c4ccccc4)s3)C2)cc1 ... no (0)
CCOc1ccc(C#Cc2ccc(C(C)NC(=O)C(C)O)cc2)cc1 (centres unmarked) ... no (0)
Cc1ccc(-c2ccc(Cl)cc2)cc1C1=C(O)CN(C2CC2)C1=O ... no (0)

Query: Is pIC50 at least 6? Consider `CCN(C)c1cc(N2CC[C@@H](Oc3ccc([C@H](C)NC(C)=O)cc3)C2)c(F)cn1`
Response: yes (1)

###

Below, IC50 values reported for human ACC2 (Homo sapiens (Human)) across several publications.
API: value field is a number in nM; no unit string.

CCCOc1ncc(C#Cc2ccc(CC(C)NC(=O)N(C)C)cc2)cn1 (centres unmarked) ... 190
COC(=O)N[C@@H](C)c1ccc(OC2CCN(c3ccnc(N4CCC(F)(F)C4)c3F)C2)cc1 (some centres unmarked) ... 134
CCCOc1cc(C#Cc2ccc([C@H](C)NC(C)=O)cc2)ccn1 ... 200
CNC(=O)N[C@@H](C)c1ccc(OC2CCN(c3ccc(OCC4CC4(F)F)cn3)C2)cc1 (some centres unmarked) ... 92
CC(=O)N[C@@H](C)c1ccc(OC2CCN(c3ccc(OCC4CC4)c(F)c3)C2)cc1 (some centres unmarked) ... 87
CC(=O)N[C@@H](C)c1ccc(OC2CCN(c3cccc(C(C)C)n3)C2)cc1 (some centres unmarked) ... 55

IC50 reading for CC(=O)NC(C)CCc1ccc(C#Cc2cnc(OC3CCC3)nc2)cc1 (centres unmarked) : 240

The compound `CCCOc1nccc(N2CC[C@@H](Oc3ccc([C@H](C)NC(C)=O)cc3)C2)c1OC` showed IC50 equal to 41

###

Listing of IC50 toward human ACC2 (Homo sapiens (Human)), each taken from a published source.

// known answers, use as guide
CCCOc1ccc(N2CCC(Oc3ccc([C@H](C)NC(C)=O)cc3)C2)nc1 (some centres unmarked) ... 146 nM
CCOc1ccc(C#Cc2ccc(C(C)C(=O)Nc3ccnn3CC)cc2)cc1 (centres unmarked) ... 840 nM
CCCOc1ccc(N2CCC(Oc3ccc([C@H](C)NC(C)=O)cc3)C2)c(C)c1 (some centres unmarked) ... 65 nM

Next molecule, please.
molecule CSc1ccc(C#Cc2ccc(CC(C)NC(C)=O)cc2)cc1 (centres unmarked) , IC50 observed: 220 nM
